Please go through the items and note down their GI50.
# Tested on: NCI/ADR-RES ovarian
# Test: NCI tumour cell line growth inhibition, 48 h

INSERT INTO assay_data (compound, subject_of_test, recorded_value) VALUES
  ('Nc1nc(N)c2c(n1)NC(c1ccc(F)cc1)C1CCc3ccccc3C1=N2 (stereo not given)', 'NCI/ADR-RES ovarian', '3.19 µM'),
  ('S=c1ssc(Oc2ccccc2)c1Cl', 'NCI/ADR-RES ovarian', '16.4 µM'),
  ('COc1ccc(-n2cc(-c3cc(OC)c(OC)c(OC)c3)nc2SCc2ccccc2)cc1OC', 'NCI/ADR-RES ovarian', '> 100 µM'),
  ('O=c1[nH]c(=O)c2cc(C3CC(O)C(CO)O3)ccc2[nH]1 (stereo not given)', 'NCI/ADR-RES ovarian', '> 100 µM'),
  ('CC(C)COCC(CN(Cc1ccccc1)c1ccccc1)N1CCCC1 (stereo not given)', 'NCI/ADR-RES ovarian', '3.12 µM');

Fill in GI50 for each of the 4 compounds listed.
1. Cc1ccc2c(c1)C(C)Cc1c(Cl)ncnc1N2C (stereo not given)
2. CCN1Cc2c(ccc(F)c2C#N)O[C@@H](C)CNC(=O)c2c(N)nn3ccc1nc23
3. COc1cc(NC(=O)CSc2nc3ccc(C)cc3c(=O)n2Cc2ccccc2)cc(OC)c1OC
4. Clc1ccc2nnnn2n1

*A*
1. 2.73 µM
2. 6.03 µM
3. 8.97 µM
4. 5.61 µM

*Q* Which GI50 value is on record for Oc1ccccc1CNCC12CC3CC(CC(C3)C1)C2 ?
*A* 40.4 µM
